target: human wildtype MrgX2 (Homo sapiens)
experiment_summary: calcium assay (LN229 cells recombinantly expressing human wildtype MrgX2)
readout_kind: pIC50
Scale for pIC50: -log10 of concentration given in mol/L; no unit attached.

Notebook: CCc1c(C)[nH]c2nc3ccccc3n2c1=O , pIC50 read as 6.18

Notebook: CCc1c(C(C)C)[nH]c2nc3cc(Cl)c(Cl)cc3n2c1=O , pIC50 read as 8.08

Notebook: CCc1c(C(C)C)[nH]c2nc3cc(Br)c(Br)cc3n2c1=O , pIC50 read as 7.43

====

target: human MrgX4 L83S (Homo sapiens, UniProt Q96LA9, L83S)
Sequence (Q96LA9 whole entry L83S): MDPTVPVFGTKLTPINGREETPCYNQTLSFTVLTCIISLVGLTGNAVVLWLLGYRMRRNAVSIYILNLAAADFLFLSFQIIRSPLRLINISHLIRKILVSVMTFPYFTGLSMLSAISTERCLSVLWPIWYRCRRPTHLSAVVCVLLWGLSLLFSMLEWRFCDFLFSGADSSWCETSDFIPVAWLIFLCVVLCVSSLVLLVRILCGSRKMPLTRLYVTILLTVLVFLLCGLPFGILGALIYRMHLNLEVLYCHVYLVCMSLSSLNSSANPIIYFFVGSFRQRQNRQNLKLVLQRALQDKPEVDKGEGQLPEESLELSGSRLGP
experiment_summary: β-arrestin assay (CHO β-arrestin human MrgX4 L83S)
Assign IC50 to each entry below.
Give just the number in µM; leave the unit off.

Notebook: CC(C)c1cc(=S)n2c(nc3ccccc32)[nH]1 [B-56] , IC50 read as 0.148

Notebook: CCc1c(CC(C)C)[nH]c2nc3ccccc3n2c1=O [C-78] , IC50 read as 0.468

Notebook: CCc1c(C(C)C)[nH]c2nc3ccc(Cl)cc3n2c1=O [C-85] , IC50 read as 0.223

Notebook: CCc1c(C(C)C)[nH]c2nc3cc(Cl)c(Cl)cc3n2c1=O [B-41] , IC50 read as 0.477

Notebook: Cc1[nH]c2nc3ccccc3n2c(=O)c1C [A-8] , IC50 read as 11.6

Notebook: CCOC(=O)CCc1c(C)[nH]c2nc3ccccc3n2c1=O [A-15] , IC50 read as 1.4

Notebook: CCc1c(C(C)(C)C)[nH]c2nc3ccccc3n2c1=O [C-76] , IC50 read as 0.349

Notebook: O=c1c2c([nH]c3nc4ccccc4n13)CCCC2 [B-55] , IC50 read as 5.66

Notebook: CCCc1[nH]c2nc3ccccc3n2c(=O)c1CC [B-43] , IC50 read as 0.278

Notebook: CCc1c(C(C)C)[nH]c2nc3cc(C)c(C)cc3n2c1=O [B-39] , IC50 read as 0.0877

====

target: human MrgX4 L83S (Homo sapiens, UniProt Q96LA9, L83S)
experiment_summary: β-arrestin assay (CHO β-arrestin human MrgX4 L83S)
readout_kind: IC50

Notebook: Cc1cc(=O)n2c3ccccc3nc2n1CC#N , IC50 read as > 100 µM

Notebook: CCc1c(C(C)C)[nH]c2nc3cc(F)c(F)cc3n2c1=O , IC50 read as 0.0225 µM

Notebook: Cc1[nH]c2nc3ccccc3n2c(=O)c1Cc1ccccc1 , IC50 read as > 100 µM

Notebook: NC1=NC=NC2Nc3ccccc3N12 (centres unmarked) , IC50 read as > 100 µM

Notebook: COCc1cc(=O)n2c(nc3ccccc32)[nH]1 , IC50 read as > 100 µM

Notebook: CCc1c(-c2ccccc2)[nH]c2nc3ccccc3n2c1=O , IC50 read as 0.54 µM

Notebook: CCc1c(C)n(C)c2nc3ccccc3n2c1=O , IC50 read as > 10 µM

Notebook: Cc1cc(=O)n2c(n1)[nH]c1ccccc12 , IC50 read as > 100 µM

Notebook: CC(C)(C)c1cc(=O)n2c(nc3ccccc32)[nH]1 , IC50 read as > 100 µM

Notebook: COCCc1c(C)[nH]c2nc3ccccc3n2c1=O , IC50 read as > 10 µM

Notebook: CCc1c(C2CC2)[nH]c2nc3ccccc3n2c1=O , IC50 read as 1.18 µM

====

target: human wildtype MrgX2 (Homo sapiens)
Sequence (Q96LB1 1-330): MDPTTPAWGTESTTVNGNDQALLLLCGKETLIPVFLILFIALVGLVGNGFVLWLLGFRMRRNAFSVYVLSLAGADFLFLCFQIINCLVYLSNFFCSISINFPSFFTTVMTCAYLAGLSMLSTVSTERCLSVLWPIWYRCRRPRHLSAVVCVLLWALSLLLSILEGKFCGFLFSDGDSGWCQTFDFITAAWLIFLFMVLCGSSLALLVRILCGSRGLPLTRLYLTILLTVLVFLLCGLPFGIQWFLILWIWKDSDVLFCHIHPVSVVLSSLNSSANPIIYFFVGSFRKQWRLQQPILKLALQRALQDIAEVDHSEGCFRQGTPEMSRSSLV
experiment_summary: calcium assay (LN229 cells recombinantly expressing human wildtype MrgX2)
Quick rule for you: IC50 under 10 nM gets t, anything else gets f.

Is IC50 of CCc1c(C(C)C)[nH]c2nc3cc(F)ccc3n2c1=O [C-74] strictly below 10 nM? t

Is IC50 of CCc1c(C(C)C)[nH]c2nc3cc(C)ccc3n2c1=O [C-71] strictly below 10 nM? t

Is IC50 of CCCc1c(CC)c(=O)n2c([nH]c3ccccc32)c1C#N [C-88] strictly below 10 nM? f

Is IC50 of O=c1c2c([nH]c3nc4ccccc4n13)CCCC2 [B-55] strictly below 10 nM? f

Is IC50 of Cc1[nH]c2nc3ccccc3n2c(=O)c1CCO [B-34] strictly below 10 nM? f

Is IC50 of CCCc1[nH]c2nc3cc(C)c(C)cc3n2c(=O)c1CC [B-44] strictly below 10 nM? f

Is IC50 of CCc1c(C)n(C)c2nc3ccccc3n2c1=O [A-30] strictly below 10 nM? f

Is IC50 of CCCc1c(-c2ccccc2)[nH]c2nc3ccccc3n2c1=O [A-21] strictly below 10 nM? f

Is IC50 of CCc1c(C(C)C)[nH]c2nc3cc(C)c(C)cc3n2c1=O [B-39] strictly below 10 nM? f

Is IC50 of CCc1c(-c2ccccc2)[nH]c2nc3ccccc3n2c1=O [C-79] strictly below 10 nM? f

Is IC50 of CCOC(=O)CCc1c(C)[nH]c2nc3ccccc3n2c1=O [A-15] strictly below 10 nM? f

====

target: human MrgX4 L83S (Homo sapiens, UniProt Q96LA9, L83S)
Construct: expressed in transfected cells; host or cells: CHO beta-arrestin cells
experiment_summary: β-arrestin assay (CHO β-arrestin human MrgX4 L83S)
Assay type: cell-based
settings: test concentration not given
readout_kind: % inhibition ± SEM (%)
Give just the number in %; leave the unit off.

Notebook: CSc1cc(C(C)C)nc2nc3ccccc3n12 , % inhibition ± SEM read as 2

Notebook: CCc1c(C(C)C)nc2n(Cc3ccccc3)c3ccc(C)cc3n2c1=O , % inhibition ± SEM read as 39

Notebook: CCc1c(O)[nH]c2nc3ccccc3n2c1=O , % inhibition ± SEM read as 16

Notebook: Cc1[nH]c2nc3ccccc3n2c(=O)c1CCO , % inhibition ± SEM read as 22

Notebook: COC(=O)Cc1cc(=O)n2c(nc3ccccc32)[nH]1 , % inhibition ± SEM read as 4

Notebook: Cc1cc(=O)n2c(n1)[nH]c1ccccc12 , % inhibition ± SEM read as 24

====

target: human MrgX4 L83S (Homo sapiens, UniProt Q96LA9, L83S)
Construct: expressed in transfected cells; host or cells: CHO beta-arrestin cells
experiment_summary: β-arrestin assay (CHO β-arrestin human MrgX4 L83S)
Format: cell-based
settings: test concentration not given
Classify as follows. Reported % inhibition ± SEM greater than or equal to 10%: Met. Reported % inhibition ± SEM below: Not met.

Could you verify whether the entry COCCc1c(C)[nH]c2nc3ccccc3n2c1=O [B-35] shows % inhibition ± SEM of no less than 10%? Met

Could you verify whether the entry CCOC(=O)Cc1cc(=O)n2c(nc3ccccc32)[nH]1 [A-29] shows % inhibition ± SEM of no less than 10%? Not met

Could you verify whether the entry Cc1[nH]c2nc3ccccc3n2c(=O)c1CCN=[N+]=[N-] [C-69] shows % inhibition ± SEM of no less than 10%? Not met

Could you verify whether the entry Cc1cc(=O)n2c3ccccc3nc2n1Cc1ccc(Cl)cc1 [A-6] shows % inhibition ± SEM of no less than 10%? Met

Could you verify whether the entry Cc1cc(=O)n2cc[nH]c2n1 [A-1] shows % inhibition ± SEM of no less than 10%? Not met

Could you verify whether the entry CCOC(=O)c1cnc2[nH]c3ccccc3n2c1=O [A-3] shows % inhibition ± SEM of no less than 10%? Met

Could you verify whether the entry Cc1[nH]c2nc3ccccc3n2c(=O)c1CCC(C)C [A-12] shows % inhibition ± SEM of no less than 10%? Not met

Could you verify whether the entry Cc1[nH]c2nc3ccccc3n2c(=O)c1CCC#N [A-16] shows % inhibition ± SEM of no less than 10%? Met

Could you verify whether the entry COC(=O)c1cc(=O)[nH]c2nc3ccccc3n12 [B-65] shows % inhibition ± SEM of no less than 10%? Met

Could you verify whether the entry CCc1c(-c2cccs2)[nH]c2nc3ccccc3n2c1=O [C-80] shows % inhibition ± SEM of no less than 10%? Met

Could you verify whether the entry Cc1cc(=O)n2c(nc3cc4ccccc4cc32)[nH]1 [B-62] shows % inhibition ± SEM of no less than 10%? Met

Could you verify whether the entry CCc1c(C)nc2[nH]ccn2c1=O [B-31] shows % inhibition ± SEM of no less than 10%? Met

Could you verify whether the entry O=c1ccnc2[nH]c3ccccc3n12 [A-2] shows % inhibition ± SEM of no less than 10%? Met
